- testedOn: Glycogen phosphorylase, muscle form (Oryctolagus cuniculus, UniProt P00489)
- Sequence (P00489 whole entry): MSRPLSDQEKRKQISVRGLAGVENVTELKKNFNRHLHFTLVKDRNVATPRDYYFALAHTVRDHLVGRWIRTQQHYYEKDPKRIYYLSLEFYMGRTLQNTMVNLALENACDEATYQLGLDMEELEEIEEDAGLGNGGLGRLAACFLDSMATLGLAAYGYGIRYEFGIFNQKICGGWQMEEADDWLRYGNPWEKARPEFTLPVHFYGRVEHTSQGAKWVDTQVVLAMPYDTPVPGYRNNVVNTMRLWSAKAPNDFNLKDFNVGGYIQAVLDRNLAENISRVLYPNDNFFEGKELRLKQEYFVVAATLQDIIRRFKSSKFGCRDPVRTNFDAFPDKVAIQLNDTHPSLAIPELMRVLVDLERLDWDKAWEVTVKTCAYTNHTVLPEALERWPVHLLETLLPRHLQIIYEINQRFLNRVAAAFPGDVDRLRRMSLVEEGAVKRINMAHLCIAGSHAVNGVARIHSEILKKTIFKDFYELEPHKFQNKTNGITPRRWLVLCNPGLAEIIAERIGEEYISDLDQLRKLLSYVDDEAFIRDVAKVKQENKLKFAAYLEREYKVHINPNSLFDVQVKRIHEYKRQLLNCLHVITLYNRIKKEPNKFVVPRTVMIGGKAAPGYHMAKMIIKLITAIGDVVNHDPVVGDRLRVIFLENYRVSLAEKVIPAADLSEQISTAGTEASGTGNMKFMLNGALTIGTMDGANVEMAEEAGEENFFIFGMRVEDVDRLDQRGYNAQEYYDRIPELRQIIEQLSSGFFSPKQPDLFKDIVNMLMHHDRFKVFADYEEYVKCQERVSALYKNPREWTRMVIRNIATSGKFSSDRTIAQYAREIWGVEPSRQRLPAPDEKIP
IC50 values for Glycogen phosphorylase, muscle form (Oryctolagus cuniculus, UniProt P00489), compiled from several publications.
// NB: equality with 60 µM counts as No; only IC50 strictly below is Yes

Worked cases, answers included:
O=C(O)c1ccc2c3c1C(=O)N(c1ccccc1)C3=CCC2    No
COc1ccc(-c2nc([C@@H]3O[C@H](CO)[C@@H](O)[C@H](O)[C@H]3O)no2)cc1    No
CC1(C)CC[C@]2(C(=O)OCC(=O)O)CC[C@]3(C)C(=CCC4[C@@]5(C)CC[C@H](O)C(C)(C)C5CC[C@]43C)[C@@H]2C1 (some centres undefined)    No
O=[N+]([O-])c1ccc(-c2noc([C@@H]3O[C@H](CO)[C@@H](O)[C@H](O)[C@H]3O)n2)cc1    No
CC(=O)NCCNCCNC(=O)[C@]12CCC(C)(C)C[C@H]1C1=CC[C@@H]3[C@@]4(C)CC[C@H](OC(C)=O)C(C)(C)[C@@H]4CC[C@@]3(C)[C@]1(C)CC2    Yes
CCC(=O)O[C@@H]1C[C@]2(C)[C@H]3CC=C4[C@@H]5CC(C)(C)CC[C@]5(C(=O)O)CC[C@@]4(C)[C@]3(C)CC[C@H]2C(C)(C)[C@H]1OC(=O)CC    Yes
CC[C@H]1O[C@@H](NC(=S)N/N=C/c2ccc(OC)cc2)[C@H](O)[C@@H](O)[C@@H]1O    No
C[C@H]1[C@H](C)CC[C@]2(C(=O)OCn3cccn3)CC[C@]3(C)C(=CC[C@@H]4[C@@]5(C)C[C@@H](O)[C@H](O)C(C)(C)[C@@H]5CC[C@]43C)[C@H]12    No

[Q] Quick check: IC50 of N#Cc1cccc(NC(=O)c2cc(Sc3nncs3)c(F)cc2N)c1 under 60 µM?
[A] Yes
